Source of measurements: PubChem BioAssay AID1159580

Experiment: chemical genetic growth profiling, strain panel (AID 1159580);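 note: tested at 20 µM; growth read once vehicle control cultures reached saturation at 30 °C; 1 = growth at the plate median or of vehicle wells; lower values mean less growth of the strain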
Settings: S. cerevisiae deletion strains, growth OD, locus YOR080W, strain dia2, active compounds read low
Among all 5,500 compounds or so, about 2,000 (36%) were called active. Roughly 18% stayed inconclusive and do not appear here. This is one part of the list.
reported.property: normalized growth

molecule: CC1=C(C/C=C(\C)CCC[C@H](C)CCC[C@H](C)CCCC(C)C)C(=O)c2ccccc2C1=O
observed.value: 0.986 (inactive)

molecule: CC1=C(/C=C/C(C)=C/C=C/C(C)=C/C=C/C=C(C)/C=C/C=C(C)/C=C/C2=C(C)C(=O)CCC2(C)C)C(C)(C)CCC1=O
observed.value: 0.993 (inactive)

molecule: OCCN1C[C@@H](O)[C@@H](O)C(O)C1CO (stereo partly drawn)
observed.value: 1.01 (inactive)

molecule: COc1ccc2cc([C@H](C)C(=O)O)ccc2c1
observed.value: 0.976 (inactive)

molecule: COc1ccc2c(c1)OCc1c-2oc2cc(OC)ccc12
observed.value: 1 (inactive)

molecule: Cc1cccc(C)c1OCC(C)N (stereo not drawn)
observed.value: 1.01 (inactive)

molecule: O=C1C=CC(=C(c2ccc(O)cc2)c2ccc(O)cc2)C=C1
observed.value: 0.986 (inactive)

molecule: Cc1cc(O)c(C=O)c(O)c1C(=O)O
observed.value: 0.998 (inactive)

molecule: CCCCNc1cc(C(=O)O)cc(S(N)(=O)=O)c1Oc1ccccc1
observed.value: 1.01 (inactive)

molecule: CCN(CCO)CCCC(C)Nc1ccnc2cc(Cl)ccc12 (stereo not drawn)
observed.value: 0.997 (inactive)

molecule: COc1ccc(OC)c(C(O)C(C)N)c1 (stereo not drawn)
observed.value: 0.99 (inactive)

molecule: COC1=C(OC)C(=O)C(C/C=C(\C)CC/C=C(\C)CC/C=C(\C)CC/C=C(/C)CC/C=C(\C)CC/C=C(\C)CC/C=C(\C)CC/C=C(\C)CC/C=C(\C)CCC=C(C)C)=C(C)C1=O
observed.value: 0.999 (inactive)

molecule: Cc1cc(O)c(C)c(O)c1C(=O)O
observed.value: 0.974 (inactive)

* * *

Assay: chemical genetic growth profiling, strain panel (AID 1159580)
Settings: S. cerevisiae deletion strains, growth OD, locus YNL020C, strain ARK1, active compounds read low
Among all 5,500 compounds or so, about 2,000 (36%) were called active. Inconclusive results (about 18%) are left out. This is one part of the list.
reported.property: normalized growth

given.smiles: COc1ccc(NNC(=O)c2sc3ccccc3c2Cl)cc1
observed.value: 0.643

given.smiles: COc1cc(NC(=S)NC(=O)c2ccccc2)c(OC)cc1Cl
observed.value: 0.977

given.smiles: Cc1nnsc1C(=O)Nc1cc(C(F)(F)F)cc(C(F)(F)F)c1
observed.value: 0.985

given.smiles: COc1cc(NC(=S)N(C)C)c(OC)cc1Cl
observed.value: 0.991

given.smiles: N#Cc1ccc(S(=O)(=O)Nc2ccccc2Oc2ccc(Cl)cc2Cl)cc1
observed.value: 0.965

given.smiles: Cc1c(Cc2ccc(F)cc2)c(=O)oc2cc(O)ccc12
observed.value: 0.96

* * *

Assay: chemical genetic growth profiling, strain panel (AID 1159580)
Conditions: S. cerevisiae deletion strains, growth OD, locus YNL250W, strain rad50, active compounds read low
Screen size: about 5,500 compounds; about 2,000 (36%) were called active. Inconclusive results (about 18%) are left out. The list shows a part of the results.
Measured normalized growth values are reported for all entries that follow.
reported.property: normalized growth

compound: CS(=O)(=O)c1ccc(C2=C(c3ccccc3)C(=O)OC2)cc1
observed.value: 0.995

compound: CCOC(=O)C(C)(C)Oc1ccc(Cl)cc1
observed.value: 1.02

compound: COc1ccc2c(c1OC)C(=O)O[C@@H]2[C@H]1c2cc3c(cc2CCN1C)OCO3
observed.value: 1.02

compound: O=C(O)c1cc2ccccc2[nH]1
observed.value: 1

compound: COc1cc(O)c(C(=O)/C=C/c2ccccc2)c(OC)c1
observed.value: 0.979

compound: ClC1=C(Cl)C2(Cl)C3C(Cl)C=CC3C1(Cl)C2(Cl)Cl (centres undefined)
observed.value: 0.99

compound: C[C@H]1OC(n2cc(F)c(=O)[nH]c2=O)C(O)[C@@H]1O (some centres undefined)
observed.value: 0.984

compound: N=c1ccn2c(n1)O[C@@H]1C2O[C@H](CO)[C@H]1O (some centres undefined)
observed.value: 1

compound: C[C@]12CC(=O)C3C(CC[C@@H]4C[C@H](O)CC[C@]34C)C1CC[C@]2(O)C(=O)CO (some centres undefined)
observed.value: 0.991

compound: OCC(O)C(O)C(O)CO (centres undefined)
observed.value: 1

compound: CC(C)(OC(=O)c1ccccc1)[C@@H]1Cc2cc3ccc(=O)oc3cc2O1
observed.value: 0.991

compound: NC(=O)c1ccc[n+]([C@@H]2O[C@H](COP(=O)([O-])OP(=O)(O)OC[C@H]3O[C@@H](n4cnc5c(N)ncnc54)[C@H](O)[C@@H]3O)[C@@H](O)[C@H]2O)c1
observed.value: 0.985

compound: ClC1=C(Cl)C2(Cl)C3C4C=CC(C4)C3C1(Cl)C2(Cl)Cl (centres undefined)
observed.value: 0.99

compound: CC(=O)OC(C)(C)[C@@H]1Cc2cc3ccc(=O)oc3cc2O1
observed.value: 1.01

* * *

Reported normalized growth values are given for each entry in this list.
Assay: chemical genetic growth profiling, strain panel (AID 1159580);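 note: tested at 20 µM; growth read once vehicle control cultures reached saturation at 30 °C; 1 = growth at the plate median or of vehicle wells; lower values mean less growth of the strain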
Conditions: S. cerevisiae deletion strains, growth OD, locus YAL040C, strain CLN3, active compounds read low
Hit rate of the full screen: of about 5,500 compounds, about 2,000 (36%) were called active. Inconclusive results (about 18%) are left out. The list shows a part of the results.
reported.property: normalized growth

compound: COc1ccc(CCNC[C@@H](O)c2ccc(O)cc2)cc1OC
reported.property: normalized growth
observed.value: 0.995
//
compound: CCOC(=O)c1cnc2c(cnn2CC)c1NN=C(C)C
reported.property: normalized growth
observed.value: 1.01
//
compound: C[N+](C)(C)CCCCCCCCCC[N+](C)(C)C
reported.property: normalized growth
observed.value: 1
//
compound: OC[C@H]1O[C@@H](n2cnc3c(Nc4ccccc4)ncnc32)C(O)[C@H]1O (stereo partly drawn)
reported.property: normalized growth
observed.value: 0.966
//
compound: NCC(O)C1CCCCCCC1 (stereo not drawn)
reported.property: normalized growth
observed.value: 1.01
//
compound: O=C1O/C(=C/Br)CCC1c1cccc2ccccc12 (stereo not drawn)
reported.property: normalized growth
observed.value: 1
//
compound: C[C@H]1O[C@@H](n2cc(F)c(=O)[nH]c2=O)[C@H](O)[C@@H]1O
reported.property: normalized growth
observed.value: 1
//
compound: O=C(O)C1C2CCC(O2)C1C(=O)O (stereo not drawn)
reported.property: normalized growth
observed.value: 0.983
//
compound: CC(C(=O)O)c1cccc(C(=O)c2ccccc2)c1 (stereo not drawn)
reported.property: normalized growth
observed.value: 1
//
compound: C[C@]12CCC(=O)C=C1CC[C@@H]1[C@@H]2CC[C@]2(C)C(=O)CC[C@@H]12
reported.property: normalized growth
observed.value: 1.01
//
compound: Cc1cccc(C)c1OCC(C)N (stereo not drawn)
reported.property: normalized growth
observed.value: 0.998
//
compound: CCOC(=O)C12CC1/C(=N\O)c1ccccc1O2 (stereo not drawn)
reported.property: normalized growth
observed.value: 1.05
//
compound: CNCC(O)c1ccc(O)c(O)c1 (stereo not drawn)
reported.property: normalized growth
observed.value: 1.08

* * *

Test: chemical genetic growth profiling, strain panel (AID 1159580);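 note: tested at 20 µM; growth read once vehicle control cultures reached saturation at 30 °C; 1 = growth at the plate median or of vehicle wells; lower values mean less growth of the strain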
Settings: S. cerevisiae deletion strains, growth OD, locus YML032C, strain rad52, active compounds read low
Hit rate of the full screen: of about 5,500 compounds, about 2,000 (36%) were called active. Not shown: some 18% with an inconclusive outcome. Some of the results follow.
Measured normalized growth values are reported for all entries that follow.

compound: CN(C)CC/C=C1\c2ccccc2Sc2ccc(Cl)cc21
normalized growth: 0.947
//
compound: O=C(O)c1cc2ccccc2[nH]1
normalized growth: 1
//
compound: C[N+](C)(C)CCCCCC[N+](C)(C)C
normalized growth: 1
//
compound: O=C(O)c1c2ccccc2cc2ccccc12
normalized growth: 0.954
//
compound: CC(N)CCCC(C)(C)O (stereo unspecified)
normalized growth: 0.986
//
compound: CC1/C(=N\O)C[C@@H]2C[C@H]1C2(C)C (stereo partly specified)
normalized growth: 1.02

* * *

Assay: chemical genetic growth profiling, strain panel (AID 1159580);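 note: tested at 20 µM; growth read once vehicle control cultures reached saturation at 30 °C; 1 = growth at the plate median or of vehicle wells; lower values mean less growth of the strain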
Conditions: S. cerevisiae deletion strains, growth OD, locus YNL222W, strain SSU72, active compounds read low
Out of some 5,500 compounds screened, about 2,000 (36%) were called active. Another 18% or so got no clear call; they are omitted. The list shows a part of the results.
Each record here notes measured normalized growth.

molecule: Cc1nnsc1C(=O)NNc1c(Cl)cccc1Cl
normalized growth: 0.973

molecule: Cc1ccc2nc(-c3ccc(Cl)cc3)cn2c1
normalized growth: 0.958

molecule: Cc1ccccc1C(=O)Oc1ccc(C(F)(F)F)cc1[N+](=O)[O-]
normalized growth: 0.955

molecule: CSC1=NNC(c2nn(C)cc2Cl)S1 (stereo not drawn)
normalized growth: 0.455

molecule: Cc1ccc(/C=C2\CSc3ccc(F)cc3C2=O)cc1
normalized growth: 0.937

molecule: CC(=O)CSc1nnc(-c2ccc(C(C)(C)C)cc2)n1-c1ccc(Cl)cc1
normalized growth: 0.97

molecule: O=C(CSc1nnnn1-c1ccccc1)c1ccccc1
normalized growth: 0.968

molecule: O=C(NNc1ccccc1F)c1ccno1
normalized growth: 0.976
